# assay protocol: Selectivity index, ratio of CC50 for human RD cells to EC50 for antiviral activity against Enterovirus A71 infected in human RD cells
# Assay type: toxicity, cell-based
# reported conditions: read-out: Ratio CC50/EC50
selectivity ratio of 200 or higher: yes. Under 200: no.

molecule	cat
O=C(CCOCC(COCCC(=O)NC(Cc1c[nH]c2c(-c3ccc(C(=O)O)cc3)cccc12)C(=O)O)(COCCC(=O)NC(Cc1c[nH]c2c(-c3ccc(C(=O)O)cc3)cccc12)C(=O)O)COCCC(=O)NC(Cc1c[nH]c2c(-c3ccc(C(=O)O)cc3)cccc12)C(=O)O)NC(Cc1c[nH]c2c(-c3ccc(C(=O)O)cc3)cccc12)C(=O)O (stereo not drawn)	no
O=C(CCC(CCC(=O)NC(Cc1c[nH]c2c(-c3ccc(C(=O)O)cc3)cccc12)C(=O)O)(CCC(=O)NC(Cc1c[nH]c2c(-c3ccc(C(=O)O)cc3)cccc12)C(=O)O)[N+](=O)[O-])NC(Cc1c[nH]c2c(-c3ccc(C(=O)O)cc3)cccc12)C(=O)O (stereo not drawn)	no
O=C(CCOCC(COCCC(=O)NC(Cc1c(-c2ccc(C(=O)O)cc2)[nH]c2c(-c3ccc(C(=O)O)cc3)cccc12)C(=O)O)(COCCC(=O)NC(Cc1c(-c2ccc(C(=O)O)cc2)[nH]c2c(-c3ccc(C(=O)O)cc3)cccc12)C(=O)O)COCCC(=O)NC(Cc1c(-c2ccc(C(=O)O)cc2)[nH]c2c(-c3ccc(C(=O)O)cc3)cccc12)C(=O)O)NC(Cc1c(-c2ccc(C(=O)O)cc2)[nH]c2c(-c3ccc(C(=O)O)cc3)cccc12)C(=O)O (stereo not drawn)	yes
CCOC(=O)c1ccc(OCCC2CCN(c3ccc(C)nn3)CC2)cc1 [PIRODAVIR]	yes
O=C(CCOCC(COCCC(=O)NC(Cc1c(-c2cc(C(=O)O)cc(C(=O)O)c2)[nH]c2c(-c3cc(C(=O)O)cc(C(=O)O)c3)cccc12)C(=O)O)(COCCC(=O)NC(Cc1c(-c2cc(C(=O)O)cc(C(=O)O)c2)[nH]c2c(-c3cc(C(=O)O)cc(C(=O)O)c3)cccc12)C(=O)O)COCCC(=O)NC(Cc1c(-c2cc(C(=O)O)cc(C(=O)O)c2)[nH]c2c(-c3cc(C(=O)O)cc(C(=O)O)c3)cccc12)C(=O)O)NC(Cc1c(-c2cc(C(=O)O)cc(C(=O)O)c2)[nH]c2c(-c3cc(C(=O)O)cc(C(=O)O)c3)cccc12)C(=O)O (stereo not drawn)	yes

(Q) Answer whether selectivity ratio of O=C(CCOCC(COCCC(=O)NC(Cc1c[nH]c2c(-c3cc(C(=O)O)cc(C(=O)O)c3)cccc12)C(=O)O)(COCCC(=O)NC(Cc1c[nH]c2c(-c3cc(C(=O)O)cc(C(=O)O)c3)cccc12)C(=O)O)COCCC(=O)NC(Cc1c[nH]c2c(-c3cc(C(=O)O)cc(C(=O)O)c3)cccc12)C(=O)O)NC(Cc1c[nH]c2c(-c3cc(C(=O)O)cc(C(=O)O)c3)cccc12)C(=O)O (stereo not drawn) is greater than or equal to 200.
(A) no

(Q) Kindly determine if selectivity ratio recorded for O=C(CCC(CCC(=O)NC(Cc1c[nH]c2c(-c3cccc(C(=O)O)c3)cccc12)C(=O)O)(CCC(=O)NC(Cc1c[nH]c2c(-c3cccc(C(=O)O)c3)cccc12)C(=O)O)[N+](=O)[O-])NC(Cc1c[nH]c2c(-c3cccc(C(=O)O)c3)cccc12)C(=O)O (stereo not drawn) is above or exactly 200.
(A) no

(Q) Exam item: decide whether the reported selectivity ratio for O=C(CCC(CCC(=O)NC(Cc1c[nH]c2c(-c3cc(C(=O)O)cc(C(=O)O)c3)cccc12)C(=O)O)(CCC(=O)NC(Cc1c[nH]c2c(-c3cc(C(=O)O)cc(C(=O)O)c3)cccc12)C(=O)O)[N+](=O)[O-])NC(Cc1c[nH]c2c(-c3cc(C(=O)O)cc(C(=O)O)c3)cccc12)C(=O)O (stereo not drawn) is at least 200.
(A) no
